All figures here come from patent US20120276102A1.

Molecular target: T1, murine IL-21R extracellular domain His-Flag fusion protein (murine, UniProt Q9JHX3 20-237)
T1 construct: Biotinylated in the ELISAs; also called mIL-21R-H/F; murine IL-21R-H/F
Assay: competition ELISA; competitor plate-bound 18A5 IgG
Method: Blocked plates were washed 3× with PBS, and 50 μl/well of scFv/IL-21R mixtures were transferred to the appropriate plates and incubated for 1 hr at RT. […] Signal was developed using 3,3′,5,5′-tetramethylbenzidine (TMB), the reaction stopped with H₂SO₄, and the absorbance read at 450 nm on an ENVISION™ plate reader (Perkin Elmer).
Entries annotated with measured IC50
measured.attribute: IC50 (nM)

[[record]]
binder = "scFv L5 (scFv) scFv: QVQLQESGPGLVKTSETLSLTCAVSGYSISSGYYWGWIRQPPGKGLEWIGSISHTGNTYYNPPLKSRVTISVDTSKNQFSLKLSSVTAADTAVYYCARGGGISRPEYWGKGTLVTVSSGGGGSGGGGSGGGGSALSSELTQDPPVSVALGQTVTLTCQGDSLRTYYASWYQQKSGQAPILLLYGKHKRPSGIPDRFSGSTSGDTASLTITGAQAEDEADYYCASRSSKGNPHVLFGGGTQLTVL"
measured_attribute = "IC50"
readout_value = 7

[[record]]
binder = "scFv L16 (scFv) scFv: QVQLQESGPGLVKTSETLSLTCAVSGYSISSGYYWGWIRQPPGKGLEWIGSISHTGNTYYNPPLKSRVTISVDTSKNQFSLKLSSVTAADTAVYYCARGGGISRPEYWGKGTLVTVSSGGGGSGGGGSGGGGSALSSELTQDPPVSVALGQTVTLTCQGDSLRTYYASWYQQKSGQAPILLLYGKHKRPSGIPDRFSGSTSGDTASLTITGAQAEDEADYYCVTRSAKGNPHVLFGGGTQLTVL"
measured_attribute = "IC50"
readout_value = 6

[[record]]
binder = "scFv L8 (scFv) scFv: QVQLQESGPGLVKTSETLSLTCAVSGYSISSGYYWGWIRQPPGKGLEWIGSISHTGNTYYNPPLKSRVTISVDTSKNQFSLKLSSVTAADTAVYYCARGGGISRPEYWGKGTLVTVSSGGGGSGGGGSGGGGSALSSELTQDPPVSVALGQTVTLTCQGDSLRTYYASWYQQKSGQAPILLLYGKHKRPSGIPDRFSGSTSGDTASLTITGAQAEDEADYYCTTRSTQGNPHVLFGGGTQLTVL"
measured_attribute = "IC50"
readout_value = 7

[[record]]
binder = "scFv L25 (scFv) scFv: QVQLQESGPGLVKTSETLSLTCAVSGYSISSGYYWGWIRQPPGKGLEWIGSISHTGNTYYNPPLKSRVTISVDTSKNQFSLKLSSVTAADTAVYYCARGGGISRPEYWGKGTLVTVSSGGGGSGGGGSGGGGSALSSELTQDPPVSVALGQTVTLTCQGDSLRTYYASWYQQKSGQAPILLLYGKHKRPSGIPDRFSGSTSGDTASLTITGAQAEDEADYYCTTRSNKGNPHVLFGGGTQLTVL"
measured_attribute = "IC50"
readout_value = 9

[[record]]
binder = "scFv L2 (scFv) scFv: QVQLQESGPGLVKTSETLSLTCAVSGYSISSGYYWGWIRQPPGKGLEWIGSISHTGNTYYNPPLKSRVTISVDTSKNQFSLKLSSVTAADTAVYYCARGGGISRPEYWGKGTLVTVSSGGGGSGGGGSGGGGSALSSELTQDPPVSVALGQTVTLTCQGDSLRTYYASWYQQKSGQAPILLLYGKHKRPSGIPDRFSGSTSGDTASLTITGAQAEDEADYYCVARSVVGNPHVLFGGGTQLTVL"
measured_attribute = "IC50"
readout_value = 5

